protocol notes: Headspace above the washing powder: relative partition parameter (SPME-GC)
Assay type: physicochemical
condition details: log of amount in headspace relative to amount in washing powder; 0.5% odorant mixture, SPME 15 min
Kind request: treat 0.2 as inclusive, so Activity (logarithmic partition parameter above washing powder) at 0.2 or higher is 1 (yes), anything lower is 0 (no).

Past entries and their recorded results:
CC(=O)OCC=C(C)C [Prenyl acetate]; 1 (yes)
CCOC(=O)c1ccccc1C(=O)OCC [Diethyl phthalate]; 0 (no)
C=C1C2CCC(C2)C1(C)C (stereo not shown); 1 (yes)

API: above_or_equal(metric=Activity (logarithmic partition parameter above washing powder), cutoff=0.2) for item `CC1=CCC(C(C)C)=CC1` 1 (yes)

Can CC(=O)OCc1ccccc1 [Benzyl acetate] be said to have Activity (logarithmic partition parameter above washing powder) at or above 0.2? 1 (yes)

Could you tell me if the measured Activity (logarithmic partition parameter above washing powder) of CC(=O)/C=C/C1C(C)=CCCC1(C)C (stereo not shown) reaches 0.2 or more? 0 (no)

Reported Activity (logarithmic partition parameter above washing powder) reaches at least 0.2 for CC1=CCC2CC1C2(C)C (stereo not shown) ? 1 (yes)
